target: Nav1.5 (Homo sapiens, UniProt Q14524); assay: in vitro; settings: peptide at 20 μM; second of two Nav1.5 columns (probably TP2); 100% = no change
Sequence (Q14524 whole entry): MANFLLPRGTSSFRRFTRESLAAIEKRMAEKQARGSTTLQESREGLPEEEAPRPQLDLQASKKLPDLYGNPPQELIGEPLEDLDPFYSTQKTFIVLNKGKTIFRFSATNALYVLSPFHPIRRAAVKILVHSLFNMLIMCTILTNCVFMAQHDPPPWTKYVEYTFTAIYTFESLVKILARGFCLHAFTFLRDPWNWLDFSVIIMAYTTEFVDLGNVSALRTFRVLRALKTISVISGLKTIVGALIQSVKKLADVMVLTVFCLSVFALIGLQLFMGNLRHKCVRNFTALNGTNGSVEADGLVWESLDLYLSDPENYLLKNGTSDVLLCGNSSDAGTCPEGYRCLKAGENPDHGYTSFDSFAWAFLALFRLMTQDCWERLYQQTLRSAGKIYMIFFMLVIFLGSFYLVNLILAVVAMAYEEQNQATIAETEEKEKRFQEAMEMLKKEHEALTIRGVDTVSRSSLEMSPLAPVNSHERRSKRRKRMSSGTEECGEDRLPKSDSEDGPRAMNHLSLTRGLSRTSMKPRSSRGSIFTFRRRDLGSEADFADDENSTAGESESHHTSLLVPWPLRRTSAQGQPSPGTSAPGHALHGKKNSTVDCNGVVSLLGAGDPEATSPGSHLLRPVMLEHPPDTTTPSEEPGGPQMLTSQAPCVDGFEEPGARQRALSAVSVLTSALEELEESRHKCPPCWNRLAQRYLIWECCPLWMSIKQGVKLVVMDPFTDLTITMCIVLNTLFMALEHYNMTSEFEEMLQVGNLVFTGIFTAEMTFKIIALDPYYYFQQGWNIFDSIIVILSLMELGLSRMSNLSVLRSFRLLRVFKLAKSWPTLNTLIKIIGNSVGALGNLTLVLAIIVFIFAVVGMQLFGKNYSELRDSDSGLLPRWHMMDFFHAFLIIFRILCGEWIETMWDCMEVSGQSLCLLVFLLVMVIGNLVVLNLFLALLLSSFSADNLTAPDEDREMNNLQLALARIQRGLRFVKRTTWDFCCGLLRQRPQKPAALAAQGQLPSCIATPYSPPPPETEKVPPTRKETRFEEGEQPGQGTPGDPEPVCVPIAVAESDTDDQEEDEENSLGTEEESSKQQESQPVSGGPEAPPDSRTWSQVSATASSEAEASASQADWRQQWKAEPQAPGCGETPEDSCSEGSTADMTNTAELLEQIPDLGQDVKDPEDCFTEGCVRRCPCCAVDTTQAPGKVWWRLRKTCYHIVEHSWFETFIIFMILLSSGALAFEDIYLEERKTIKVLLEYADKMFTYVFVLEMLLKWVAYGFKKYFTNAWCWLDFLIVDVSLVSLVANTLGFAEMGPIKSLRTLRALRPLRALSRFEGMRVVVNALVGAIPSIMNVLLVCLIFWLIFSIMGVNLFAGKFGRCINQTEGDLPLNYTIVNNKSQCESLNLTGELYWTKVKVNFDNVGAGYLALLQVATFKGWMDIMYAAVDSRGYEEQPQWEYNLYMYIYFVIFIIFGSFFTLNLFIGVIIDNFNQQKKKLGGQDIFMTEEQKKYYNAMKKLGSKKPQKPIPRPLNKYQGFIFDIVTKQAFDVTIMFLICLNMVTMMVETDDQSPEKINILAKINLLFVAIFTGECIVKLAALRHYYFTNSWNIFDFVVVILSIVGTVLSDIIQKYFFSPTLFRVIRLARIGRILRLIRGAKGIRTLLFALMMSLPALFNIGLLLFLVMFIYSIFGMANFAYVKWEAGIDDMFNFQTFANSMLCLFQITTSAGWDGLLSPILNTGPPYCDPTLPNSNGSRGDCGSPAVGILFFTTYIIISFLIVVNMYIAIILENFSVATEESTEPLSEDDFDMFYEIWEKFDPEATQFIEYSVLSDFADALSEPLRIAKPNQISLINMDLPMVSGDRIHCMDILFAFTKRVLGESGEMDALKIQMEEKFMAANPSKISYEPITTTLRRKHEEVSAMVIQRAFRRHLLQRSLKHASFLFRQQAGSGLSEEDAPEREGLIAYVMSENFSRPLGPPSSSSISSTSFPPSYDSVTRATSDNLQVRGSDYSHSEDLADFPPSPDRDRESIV
Observation type: Activity of Nav1.5 with peptide (percentage of the reference compound)

substance="20 (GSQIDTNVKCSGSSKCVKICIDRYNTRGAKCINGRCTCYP) [compound 20]" value=105%
substance="6 (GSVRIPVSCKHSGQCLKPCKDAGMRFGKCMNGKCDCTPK) [compound 6]" value=120%
substance="15 (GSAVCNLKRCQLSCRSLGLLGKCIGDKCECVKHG) [compound 15]" value=79%
substance="2 (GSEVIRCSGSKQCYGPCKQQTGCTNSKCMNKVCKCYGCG) [compound 2]" value=101%
substance="12 (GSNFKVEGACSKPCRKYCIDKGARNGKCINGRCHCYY) [compound 12]" value=136%
substance="17 (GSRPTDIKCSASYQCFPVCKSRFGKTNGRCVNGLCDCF) [compound 17]" value=94%
substance="10 (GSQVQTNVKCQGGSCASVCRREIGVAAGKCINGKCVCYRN) [compound 10]" value=116%
substance="13 (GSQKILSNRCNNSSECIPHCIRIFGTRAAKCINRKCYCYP) [compound 13]" value=101%
substance="14 (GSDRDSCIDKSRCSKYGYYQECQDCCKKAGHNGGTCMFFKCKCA) [compound 14]" value=97%
substance="4 (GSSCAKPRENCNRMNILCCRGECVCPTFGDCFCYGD) [compound 4]" value=101%
substance="23 (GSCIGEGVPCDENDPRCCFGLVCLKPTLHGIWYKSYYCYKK) [compound 23]" value=83%
substance="9 (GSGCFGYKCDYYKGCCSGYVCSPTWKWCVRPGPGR) [compound 9]" value=110%
substance="27 (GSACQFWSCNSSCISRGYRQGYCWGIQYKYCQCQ) [compound 27]" value=109%
substance="11 (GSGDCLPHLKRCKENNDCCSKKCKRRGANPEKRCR) [compound 11]" value=118%
substance="16 (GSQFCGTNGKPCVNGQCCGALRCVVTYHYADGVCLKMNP) [compound 16]" value=93%
substance="18 (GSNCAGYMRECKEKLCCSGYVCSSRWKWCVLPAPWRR) [compound 18]" value=112%

* * *

target: Kv1.3 (Homo sapiens, UniProt P22001); construct: host or cells: HEK293 or CHO; test: cell-based; assay type: cell-based; conditions: peptide at 0.2 μM; 100% = no change, <100% = inhibition
Sequence (P22001 whole entry): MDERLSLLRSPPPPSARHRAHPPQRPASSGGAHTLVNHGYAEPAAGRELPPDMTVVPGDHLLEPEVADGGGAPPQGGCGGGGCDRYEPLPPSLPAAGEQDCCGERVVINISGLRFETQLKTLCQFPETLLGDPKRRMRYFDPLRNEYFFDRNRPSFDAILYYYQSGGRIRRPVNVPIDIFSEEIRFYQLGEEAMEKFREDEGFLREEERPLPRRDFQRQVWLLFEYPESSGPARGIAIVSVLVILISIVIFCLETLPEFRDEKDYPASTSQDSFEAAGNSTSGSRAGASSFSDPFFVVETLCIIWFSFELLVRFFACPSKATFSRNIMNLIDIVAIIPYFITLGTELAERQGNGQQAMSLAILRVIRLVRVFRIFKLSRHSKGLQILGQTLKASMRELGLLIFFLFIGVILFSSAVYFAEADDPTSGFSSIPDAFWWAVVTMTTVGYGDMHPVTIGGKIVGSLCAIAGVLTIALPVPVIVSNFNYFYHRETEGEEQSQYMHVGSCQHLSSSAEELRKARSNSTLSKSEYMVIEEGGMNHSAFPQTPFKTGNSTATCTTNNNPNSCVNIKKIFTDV
Observation type: Activity of Kv1.3 with peptide, expressed as a percentage of the reference compound

substance="16 (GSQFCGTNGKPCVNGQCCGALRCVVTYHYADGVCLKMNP) [compound 16]" target_entity="Kv1.3 (Homo sapiens, UniProt P22001)" value=92%
substance="23 (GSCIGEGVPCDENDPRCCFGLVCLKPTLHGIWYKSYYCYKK) [compound 23]" target_entity="Kv1.3 (Homo sapiens, UniProt P22001)" value=81%
substance="30 (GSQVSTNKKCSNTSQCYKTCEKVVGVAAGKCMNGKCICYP) [compound 30]" target_entity="Kv1.3 (Homo sapiens, UniProt P22001)" value=89%
substance="32 (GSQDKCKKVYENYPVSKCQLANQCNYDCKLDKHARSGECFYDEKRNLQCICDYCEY) [compound 32]" target_entity="Kv1.3 (Homo sapiens, UniProt P22001)" value=98%

* * *

molecular target: α4β2 (Homo sapiens, UniProt P17787+P43681); construct: host or cells: HEK293 or CHO; experiment: Ion channel panel (IonWorks Barracuda): α4β2; format: cell-based; conditions: peptide at 0.2 μM; 100% = no change, <100% = inhibition
Sequence (P43681 29-627): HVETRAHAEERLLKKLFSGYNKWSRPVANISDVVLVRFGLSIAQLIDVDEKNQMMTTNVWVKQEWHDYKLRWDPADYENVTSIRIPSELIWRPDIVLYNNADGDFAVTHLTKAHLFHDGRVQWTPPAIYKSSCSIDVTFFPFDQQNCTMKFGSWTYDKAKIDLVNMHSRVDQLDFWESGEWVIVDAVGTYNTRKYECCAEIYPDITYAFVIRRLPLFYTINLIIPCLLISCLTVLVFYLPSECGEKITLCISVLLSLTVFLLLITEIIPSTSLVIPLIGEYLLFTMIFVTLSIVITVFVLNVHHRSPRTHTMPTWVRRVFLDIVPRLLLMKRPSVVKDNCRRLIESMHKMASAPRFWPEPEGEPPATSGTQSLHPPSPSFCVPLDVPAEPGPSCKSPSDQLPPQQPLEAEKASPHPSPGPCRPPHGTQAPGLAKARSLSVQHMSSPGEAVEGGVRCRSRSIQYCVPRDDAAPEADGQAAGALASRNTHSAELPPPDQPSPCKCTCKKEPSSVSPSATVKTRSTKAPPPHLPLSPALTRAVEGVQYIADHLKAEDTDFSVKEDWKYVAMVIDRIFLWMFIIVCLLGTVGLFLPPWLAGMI
Sequence (P17787 26-502): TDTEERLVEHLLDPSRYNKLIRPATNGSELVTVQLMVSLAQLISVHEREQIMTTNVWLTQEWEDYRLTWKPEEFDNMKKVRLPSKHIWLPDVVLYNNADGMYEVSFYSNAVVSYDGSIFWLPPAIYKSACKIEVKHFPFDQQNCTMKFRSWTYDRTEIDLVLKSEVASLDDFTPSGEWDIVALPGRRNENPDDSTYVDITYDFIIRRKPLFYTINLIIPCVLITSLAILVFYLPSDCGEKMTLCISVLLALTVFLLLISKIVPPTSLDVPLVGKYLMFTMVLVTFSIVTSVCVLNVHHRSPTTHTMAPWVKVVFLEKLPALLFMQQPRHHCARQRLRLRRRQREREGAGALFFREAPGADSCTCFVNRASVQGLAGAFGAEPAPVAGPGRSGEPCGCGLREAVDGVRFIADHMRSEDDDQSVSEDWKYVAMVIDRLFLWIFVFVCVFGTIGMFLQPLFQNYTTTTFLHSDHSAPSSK
The following substances are listed with their measured Activity of a4b2 with peptide, expressed as a percentage of the reference compound values.
Observation type: Activity of a4b2 with peptide, expressed as a percentage of the reference compound (%)

substance="20 (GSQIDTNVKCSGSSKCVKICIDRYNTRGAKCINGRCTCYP) [compound 20]" units_symbol=% value=113
substance="25 (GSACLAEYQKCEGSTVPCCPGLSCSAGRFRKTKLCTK) [compound 25]" units_symbol=% value=73
substance="14 (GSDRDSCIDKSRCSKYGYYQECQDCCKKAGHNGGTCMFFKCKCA) [compound 14]" units_symbol=% value=106
substance="11 (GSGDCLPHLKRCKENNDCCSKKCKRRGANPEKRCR) [compound 11]" units_symbol=% value=111
substance="9 (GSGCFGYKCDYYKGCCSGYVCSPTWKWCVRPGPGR) [compound 9]" units_symbol=% value=96
substance="27 (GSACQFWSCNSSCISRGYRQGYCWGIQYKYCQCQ) [compound 27]" units_symbol=% value=90
substance="17 (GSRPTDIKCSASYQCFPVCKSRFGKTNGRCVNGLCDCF) [compound 17]" units_symbol=% value=93

* * *

Measured Activity of Cav2.2 with peptide, expressed as a percentage of the reference compound accompanies every entry in the list below.
target: Cav2.2 (Homo sapiens, UniProt Q00975); construct: host or cells: HEK293 or CHO; test: cell-based; settings: peptide at 0.2 μM; 100% = no change, <100% = inhibition
Observation type: Activity of Cav2.2 with peptide, expressed as a percentage of the reference compound

substance="12 (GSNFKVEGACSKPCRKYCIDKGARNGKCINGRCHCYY) [compound 12]" value=115%
substance="19 (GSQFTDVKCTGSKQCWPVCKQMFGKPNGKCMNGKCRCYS) [compound 19]" value=116%
substance="24 (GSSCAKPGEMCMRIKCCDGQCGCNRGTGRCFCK) [compound 24]" value=120%
substance="29 (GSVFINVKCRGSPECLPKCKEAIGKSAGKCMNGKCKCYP) [compound 29]" value=116%
substance="20 (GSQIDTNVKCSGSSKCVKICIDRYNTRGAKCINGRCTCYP) [compound 20]" value=110%
substance="21 (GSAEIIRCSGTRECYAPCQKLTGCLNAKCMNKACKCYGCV) [compound 21]" value=98%
substance="30 (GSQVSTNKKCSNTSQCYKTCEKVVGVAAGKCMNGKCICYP) [compound 30]" value=96%
substance="2 (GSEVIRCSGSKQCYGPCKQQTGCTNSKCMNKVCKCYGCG) [compound 2]" value=104%
substance="15 (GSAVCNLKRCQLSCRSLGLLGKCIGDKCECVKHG) [compound 15]" value=105%
substance="4 (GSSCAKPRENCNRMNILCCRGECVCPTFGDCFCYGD) [compound 4]" value=105%
substance="10 (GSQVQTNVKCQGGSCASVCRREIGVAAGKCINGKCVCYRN) [compound 10]" value=98%
substance="6 (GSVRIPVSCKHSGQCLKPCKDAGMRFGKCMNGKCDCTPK) [compound 6]" value=103%
substance="14 (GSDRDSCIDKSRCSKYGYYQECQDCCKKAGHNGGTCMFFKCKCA) [compound 14]" value=129%
substance="18 (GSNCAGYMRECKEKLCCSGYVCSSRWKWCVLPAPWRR) [compound 18]" value=132%
substance="23 (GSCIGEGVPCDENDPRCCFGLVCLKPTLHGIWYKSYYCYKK) [compound 23]" value=110%
substance="9 (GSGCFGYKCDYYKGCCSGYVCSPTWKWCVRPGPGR) [compound 9]" value=109%
substance="36 (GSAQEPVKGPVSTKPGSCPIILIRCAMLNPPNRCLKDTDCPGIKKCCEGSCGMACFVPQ) [compound 36]" value=114%
substance="17 (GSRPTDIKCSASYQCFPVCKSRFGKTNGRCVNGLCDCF) [compound 17]" value=117%

* * *

target: Kv1.2 (Homo sapiens); construct: host or cells: HEK293 or CHO; test: cell-based; assay type: cell-based; conditions: peptide at 20 μM; 100% = no change, <100% = inhibition
Sequence (P16389 whole entry): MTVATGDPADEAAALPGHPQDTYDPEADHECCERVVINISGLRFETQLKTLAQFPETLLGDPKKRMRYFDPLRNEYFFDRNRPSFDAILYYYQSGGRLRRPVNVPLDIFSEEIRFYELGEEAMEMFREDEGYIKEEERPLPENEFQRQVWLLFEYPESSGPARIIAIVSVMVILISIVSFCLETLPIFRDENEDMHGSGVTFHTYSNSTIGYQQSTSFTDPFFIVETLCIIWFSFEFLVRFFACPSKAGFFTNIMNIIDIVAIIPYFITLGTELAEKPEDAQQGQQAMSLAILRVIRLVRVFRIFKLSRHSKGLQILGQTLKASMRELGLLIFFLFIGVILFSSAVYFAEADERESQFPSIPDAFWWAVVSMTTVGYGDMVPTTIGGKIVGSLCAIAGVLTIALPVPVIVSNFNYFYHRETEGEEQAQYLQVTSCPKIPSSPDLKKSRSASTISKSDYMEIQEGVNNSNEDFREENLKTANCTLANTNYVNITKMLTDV
Overview of recorded Activity of Kv1.2 with peptide (percentage of the reference compound) for various substances
Observation type: Activity of Kv1.2 with peptide (percentage of the reference compound) (%)

substance="10 (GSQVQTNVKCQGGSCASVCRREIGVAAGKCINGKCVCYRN) [compound 10]" value=77
substance="30 (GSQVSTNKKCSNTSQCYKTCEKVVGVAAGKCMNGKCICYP) [compound 30]" value=92
substance="29 (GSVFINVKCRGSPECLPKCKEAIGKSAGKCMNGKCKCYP) [compound 29]" value=42
substance="14 (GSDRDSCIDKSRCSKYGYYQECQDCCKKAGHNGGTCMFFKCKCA) [compound 14]" value=34
substance="2 (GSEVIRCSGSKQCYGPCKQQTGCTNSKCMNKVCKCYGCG) [compound 2]" value=39
substance="18 (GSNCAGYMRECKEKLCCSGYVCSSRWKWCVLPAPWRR) [compound 18]" value=30
substance="11 (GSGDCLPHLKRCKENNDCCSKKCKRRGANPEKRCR) [compound 11]" value=46
substance="22 (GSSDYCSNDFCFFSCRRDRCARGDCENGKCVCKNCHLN) [compound 22]" value=34

Taken from patent US20200262877A1.
